Provide the recorded % inhibition for the entries that follow.
Test system: human PKK mRNA
Test: Antisense inhibition of human PKK mRNA in HepaRG cells, 5,000 nM (Example 2)
Format: cell-based
Conditions: human PKK mRNA, HepaRG cells; 5-10-5 motif oligonucleotides targeting SEQ ID NO: 1 and 10
Strand notation (5' to 3'): a small letter for the sugar, then the base; units joined by * are phosphorothioate-linked, units joined directly phosphodiester-linked; [ ] holds rarer units or linkages, { } end groups; capitals alone tell only the bases. e = 2'-O-(2-methoxyethyl) (MOE); [5mC] = 5-methylcytosine; d = 2'-deoxy (DNA)
Please give a number only; it is taken to be in %.

Report % inhibition for 546889 (eG*eT*e[5mC]*e[5mC]*eT*dA*dT*dG*dT*d[5mC]*dA*d[5mC]*dT*dG*dT*eA*e[5mC]*e[5mC]*eT*eA; antisense) [compound 546889] please.
93

Follow-up item: 547632 (antisense eT*e[5mC]*eA*e[5mC]*eT*dG*dT*d[5mC]*d[5mC]*dT*dA*dT*dA*dT*d[5mC]*eA*e[5mC]*eT*e[5mC]*eT) [compound 547632]
87

Follow-up item: 531231 (eT*eA*eT*e[5mC]*eA*d[5mC]*dT*dG*dT*dA*d[5mC]*dT*dA*dG*dT*eT*eT*e[5mC]*e[5mC]*eT) [compound 531231]
93

Follow-up item: 546897 (eA*eG*eT*eA*eT*d[5mC]*dA*d[5mC]*dT*dG*dT*d[5mC]*d[5mC]*dT*dA*eT*eG*eT*e[5mC]*eA; antisense) [compound 546897]
90

----------
Test system: human PKK mRNA
Experiment: Dose-dependent antisense inhibition of human PKK in HepaRG cells, 0.19-5.00 uM (Example 5)
Type: cell-based
Conditions: HepaRG cells, 0.56 μM antisense oligonucleotide
Strand notation (5' to 3'): a small letter for the sugar, then the base; units joined by * are phosphorothioate-linked, units joined directly phosphodiester-linked; [ ] holds rarer units or linkages, { } end groups; capitals alone tell only the bases. e = 2'-O-(2-methoxyethyl) (MOE); [5mC] = 5-methylcytosine; d = 2'-deoxy (DNA)
Label 1.0 when percent inhibition of PKK mRNA, 0.56 μM >= 20%; otherwise 0.0.

Please tell me: is the substance 546897 (eA*eG*eT*eA*eT*d[5mC]*dA*d[5mC]*dT*dG*dT*d[5mC]*d[5mC]*dT*dA*eT*eG*eT*e[5mC]*eA; antisense) [compound 546897] at or over 20% in terms of percent inhibition of PKK mRNA, 0.56 μM?
0.0

Follow-up item: 547632 (antisense eT*e[5mC]*eA*e[5mC]*eT*dG*dT*d[5mC]*d[5mC]*dT*dA*dT*dA*dT*d[5mC]*eA*e[5mC]*eT*e[5mC]*eT) [compound 547632]
0.0

Follow-up item: 546753 (e[5mC]*eT*eG*eG*e[5mC]*dT*d[5mC]*dA*d[5mC]*dT*dA*dT*dA*dG*dG*e[5mC]*e[5mC]*e[5mC]*e[5mC]*eA; antisense) [compound 546753]
1.0

Follow-up item: 546889 (eG*eT*e[5mC]*e[5mC]*eT*dA*dT*dG*dT*d[5mC]*dA*d[5mC]*dT*dG*dT*eA*e[5mC]*e[5mC]*eT*eA; antisense) [compound 546889]
0.0

Follow-up item: 546986 (e[5mC]*eA*eG*eG*eA*dT*dA*dG*dA*dA*d[5mC]*dT*dG*dA*dT*eG*eG*eT*e[5mC]*e[5mC]; antisense) [compound 546986]
1.0
